Readings of melting point for the listed molecules
metric-name: melting point

molecule=O=C1C(=O)c2ccccc2C2=C1SCC1(CCN(CCc3ccccc3)CC1)O2 result="117 to 118 °C"
molecule="CCCC(C)N1CCC2(CC1)CSC1=C(O2)c2ccccc2C(=O)C1=O (centres unmarked)" result="109 to 111 °C"
molecule=O=C1C(=O)c2ccc(Br)cc2C2=C1SCC1(CCN(C[C@H](O)COc3ccc(Cl)cc3)CC1)O2 result="150 to 152 °C"
molecule="O=C1C(=O)c2ccccc2C2=C1SCC1(CCCN(C[C@@H](O)Cc3ccccc3)C1)O2 (some centres unmarked)" result="59 to 60 °C"
molecule="O=C1C(=O)c2ccccc2C2=C1SCC1(CCCN(C(=O)Oc3cccc(C(F)(F)F)c3)C1)O2 (centres unmarked)" result="95 to 99 °C"
molecule=O=C1C(=O)c2ccc(F)cc2C2=C1SCC1(CCN(C[C@H](O)Cc3ccccc3)CC1)O2 result="76 to 77 °C"
molecule=O=C1C(=O)c2ccc(Cl)cc2C2=C1SCC1(CCN(C(=O)c3cccc(Cl)c3)CC1)O2 result="125 to 130 °C"
molecule=O=C1C(=O)c2ccc(F)cc2C2=C1SCC1(CCN(C[C@@H](O)Cc3ccccc3)CC1)O2 result="77 to 79 °C"
molecule=CN(C)S(=O)(=O)N1CCC2(CC1)CSC1=C(O2)c2ccccc2C(=O)C1=O result="215 to 218 °C"
molecule=CC(C)(C)c1ccc(OC[C@@H](O)CN2CCC(N3CCC4(CC3)CSC3=C(O4)c4ccccc4C(=O)C3=O)CC2)cc1 result="190 to 193 °C"
molecule="O=C1C(=O)c2ccccc2C2=C1SCC1(CCCN(C(=O)c3cccc(Cl)c3)CC1)O2 (centres unmarked)" result="98 to 100 °C"
